Origin of the recorded values: the NIST ThermoML archive (doi:10.1021/acs.jced.6b00362)

Assay: refractive index (other wavelength) (dimensionless); xn = mol fraction of the nth substance listed
Settings: 1023 K; 100 kPa; Liquid; Wavelength=632.8 nm; ellipsometry; x1 = 0.5
PARAMETER MEASURED: refractive index

{"MOLECULE": "[Cl][Sm]([Cl])[Cl] [samarium chloride] + [Cl-].[Na+]", "PARAMETER MEASURED": "refractive index", "RESULT": 1.602}
{"MOLECULE": "[Cl-].[Cl-].[Cl-].[Gd+3] [gadolinium(III) chloride] + [Cl-].[Na+]", "PARAMETER MEASURED": "refractive index", "RESULT": 1.57}
{"MOLECULE": "[Cl][Sm]([Cl])[Cl] [samarium chloride] + [Cl-].[K+]", "PARAMETER MEASURED": "refractive index", "RESULT": 1.577}
{"MOLECULE": "[Cl-].[Cl-].[Cl-].[Gd+3] [gadolinium(III) chloride] + [Cl-].[K+]", "PARAMETER MEASURED": "refractive index", "RESULT": 1.546}
{"MOLECULE": "[Cl-].[Cl-].[Cl-].[Gd+3] [gadolinium(III) chloride] + [Cl-].[Cs+]", "PARAMETER MEASURED": "refractive index", "RESULT": 1.552}

###

Reported refractive index is given for each of the following compounds.
Assay: refractive index (other wavelength) (dimensionless); xn = mol fraction of the nth substance listed
Conditions: 1173 K; 100 kPa; Liquid; Wavelength=632.8 nm; ellipsometry; x1 = 0.25

{"COMPOUND": "[Cl-].[Cl-].[Cl-].[Gd+3] [gadolinium(III) chloride] + [Cl-].[K+]", "refractive index": 1.457}
{"COMPOUND": "[Cl-].[Cl-].[Cl-].[Gd+3] [gadolinium(III) chloride] + [Cl-].[Na+]", "refractive index": 1.488}
{"COMPOUND": "[Cl][Ce]([Cl])[Cl] [cerium trichloride] + [Cl-].[Cs+]", "refractive index": 1.479}
{"COMPOUND": "[Cl][Sm]([Cl])[Cl] [samarium chloride] + [Cl-].[Na+]", "refractive index": 1.503}
{"COMPOUND": "[Cl][Ce]([Cl])[Cl] [cerium trichloride] + [Cl-].[K+]", "refractive index": 1.463}
{"COMPOUND": "[Cl][Sm]([Cl])[Cl] [samarium chloride] + [Cl-].[K+]", "refractive index": 1.458}

###

Assay: refractive index (other wavelength) (dimensionless); xn = mol fraction of the nth substance listed
Conditions: 1123 K; 100 kPa; Liquid; Wavelength=632.8 nm; ellipsometry; x1 = 0.25
± gives the expanded uncertainty stated by the source.

{"COMPOUND": "[Cl][Ce]([Cl])[Cl] [cerium trichloride] + [Cl-].[K+]", "refractive index": "1.471 ± 0.001"}
{"COMPOUND": "[Cl-].[Cl-].[Cl-].[Gd+3] [gadolinium(III) chloride] + [Cl-].[Na+]", "refractive index": "1.496 ± 0.001"}
{"COMPOUND": "[Cl-].[Cl-].[Cl-].[Gd+3] [gadolinium(III) chloride] + [Cl-].[K+]", "refractive index": "1.465 ± 0.001"}
{"COMPOUND": "[Cl][Sm]([Cl])[Cl] [samarium chloride] + [Cl-].[K+]", "refractive index": "1.466 ± 0.001"}
{"COMPOUND": "[Cl][Sm]([Cl])[Cl] [samarium chloride] + [Cl-].[Na+]", "refractive index": "1.51 ± 0.001"}
{"COMPOUND": "[Cl][Ce]([Cl])[Cl] [cerium trichloride] + [Cl-].[Cs+]", "refractive index": "1.487 ± 0.001"}

###

Conditions: Crystal; DTA
Parameter: Normal melting temperature. Scope: all listed entries.

{"COMPOUND": "[Cl][Nd]([Cl])[Cl] [neodymium(III) chloride]", "RESULT UNITS": "°C", "Normal melting temperature": 760}
{"COMPOUND": "[Cl][Ce]([Cl])[Cl] [cerium trichloride]", "RESULT UNITS": "°C", "Normal melting temperature": 822}
{"COMPOUND": "[Cl-].[Cl-].[Cl-].[Gd+3] [gadolinium(III) chloride]", "RESULT UNITS": "°C", "Normal melting temperature": 602}
{"COMPOUND": "[Cl][Sm]([Cl])[Cl] [samarium chloride]", "RESULT UNITS": "°C", "Normal melting temperature": 678}

###

Overview of reported refractive index across a group of molecules:
Experiment: refractive index (other wavelength) (dimensionless); xn = mol fraction of the nth substance listed
Settings: 1073 K; 100 kPa; Liquid; Wavelength=632.8 nm; ellipsometry; x1 = 0.25

{"MOLECULE": "[Cl][Ce]([Cl])[Cl] [cerium trichloride] + [Cl-].[K+]", "refractive index": 1.478}
{"MOLECULE": "[Cl][Sm]([Cl])[Cl] [samarium chloride] + [Cl-].[K+]", "refractive index": 1.478}
{"MOLECULE": "[Cl][Sm]([Cl])[Cl] [samarium chloride] + [Cl-].[Na+]", "refractive index": 1.518}
{"MOLECULE": "[Cl-].[Cl-].[Cl-].[Gd+3] [gadolinium(III) chloride] + [Cl-].[K+]", "refractive index": 1.473}
{"MOLECULE": "[Cl-].[Cl-].[Cl-].[Gd+3] [gadolinium(III) chloride] + [Cl-].[Na+]", "refractive index": 1.505}
{"MOLECULE": "[Cl][Ce]([Cl])[Cl] [cerium trichloride] + [Cl-].[Cs+]", "refractive index": 1.495}

###

Assay: refractive index (other wavelength) (dimensionless); xn = mol fraction of the nth substance listed
Settings: 1173 K; 100 kPa; Liquid; Wavelength=632.8 nm; ellipsometry; x1 = 0.75
PARAMETER MEASURED: refractive index

{"MOLECULE": "[Cl][Sm]([Cl])[Cl] [samarium chloride] + [Cl-].[K+]", "PARAMETER MEASURED": "refractive index", "RESULT": 1.605}
{"MOLECULE": "[Cl-].[Cl-].[Cl-].[Gd+3] [gadolinium(III) chloride] + [Cl-].[Na+]", "PARAMETER MEASURED": "refractive index", "RESULT": 1.616}
{"MOLECULE": "[Cl][Ce]([Cl])[Cl] [cerium trichloride] + [Cl-].[Cs+]", "PARAMETER MEASURED": "refractive index", "RESULT": 1.61}
{"MOLECULE": "[Cl-].[Cl-].[Cl-].[Gd+3] [gadolinium(III) chloride] + [Cl-].[Cs+]", "PARAMETER MEASURED": "refractive index", "RESULT": 1.594}
{"MOLECULE": "[Cl-].[Cl-].[Cl-].[Gd+3] [gadolinium(III) chloride] + [Cl-].[K+]", "PARAMETER MEASURED": "refractive index", "RESULT": 1.591}
{"MOLECULE": "[Cl][Ce]([Cl])[Cl] [cerium trichloride] + [Cl-].[K+]", "PARAMETER MEASURED": "refractive index", "RESULT": 1.575}
{"MOLECULE": "[Cl][Sm]([Cl])[Cl] [samarium chloride] + [Cl-].[Na+]", "PARAMETER MEASURED": "refractive index", "RESULT": 1.629}
